src = PubChem BioAssay (NCI)

In this section, each of the compounds is paired with its reported TGI.
# System: RXF 393 renal
# protocol_summary: NCI tumour cell line growth inhibition, 48 h
outcome_measure: TGI

1) Oc1cccc(-c2nc3cc(F)ccc3s2)c1; > 100 µM
2) Cc1cc(S(=O)(=O)Nc2nc3cc(-c4ccc(Cl)cc4)sc3c(=O)n2N)c(S)cc1Cl; > 100 µM
3) O=C(Nc1c(Cl)cc([N+](=O)[O-])cc1Cl)C(=O)C(C1OC(=O)c2ccccc21)[N+](=O)[O-] (stereo unspecified); > 100 µM
4) N#Cc1cccnc1Cl; > 100 µM
5) Nc1ccn(C2OC(CO)C(O)C2O)c(=O)c1 (stereo unspecified); > 625 µM
6) CC1=NNC(=O)C1C(CC(=O)c1c[nH]c2ccccc12)C(=O)O (stereo unspecified); > 100 µM
